- studyTarget: HIF-2α HIS TAG-PASB Domain (Homo sapiens, UniProt Q99814)
- Construct: 100 nM HIF-2α HIS TAG-PASB Domain
- Sequence (Q99814 240-350 limits assumed): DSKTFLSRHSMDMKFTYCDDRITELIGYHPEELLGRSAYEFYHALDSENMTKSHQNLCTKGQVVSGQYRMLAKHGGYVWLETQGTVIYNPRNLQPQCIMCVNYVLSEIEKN
- testProtocol: HIF-2α Scintillation Proximity Assay (SPA)
- Type: binding
- conditionContext: read-out: Scintillation Proximity Assay IC50

compound: O=S(=O)(c1ccc(-c2cc(F)cc(Cl)c2)c2c1[C@H](O)C(F)(F)C2)C(F)(F)F [Compound 557]
IC50: < 0.05 µM
//
compound: NC(=O)C1CCc2c(OCC(F)F)ccc(C(F)(F)F)c21 (centres unmarked) [Compound 692]
IC50: > 1 µM
//
compound: Cc1c(S(C)(=O)=O)ccc(Oc2cc(F)cc(C#N)c2)c1C#N [Compound 51]
IC50: > 1 µM
//
compound: CS(=N)(=O)c1ccc(Oc2cc(F)cc(Cl)c2)c(C#N)c1Cl (centres unmarked) [Compound 180]
IC50: > 1 µM
//
compound: OC1CCc2c(OCC(F)F)ccc(C(F)(F)F)c21 (centres unmarked) [Compound 662]
IC50: > 1 µM
